Consider the following sequences and their measured folding stability dG unfold readings.
test: folding stability dG unfold from chymotrypsin proteolysis; higher = more stable
measured parameter: folding stability dG unfold (kcal/mol)

SAGGSAGGSAKKKVEIKIEIEEVTNKDGKKYIKIKIEVKVSEEVKKELADALKKAGFKVEPSAGGSAGGSAG [r3_157_TrROS_Hall]
2.43
SAGGSAGGSAPRLVRVRGPDGGERVIPVPPDVLADRIPPDVPVRVPVVREDGRFRFRVERGSAGGSAGGSAG [r3_86_TrMRF]
-0.819
SAGGSAGGKKIRIRIPLPDGTWVEVEVYFSEDGIYSFYIPPTGKLVLIDVGENGIKITIIDLPPSAGGSAGG [r6_58_TrMRF]
4.47
SAGGSAKVIMFPSLEEALDLAKEAMGHGKPIQIFLPDGYMIEIEVKPDPDGKPKIDIKWRKLPPDDSAGGSA [r15_761_TrROS]
2.8
SAGGSAGGSAGMRLLTEEIVVEQFFYETGETRLTVLTKEILVVPPRPVPVPLPEGGLRLLSAGGSAGGSAGG [r11_307_JUSTAS]
0.925
SMPPDEKLIFVTRFKVKPDNPEDIEKALAAARETVRALLEELGLPEVKEVRVLRVEVHPDGYVTVVVEVGSA [r9_754_TrMRF]
4.73
SAGGGMMWTVTFYPKETDTPITFPVPKEYITEIDEENNKIVIKKPPGETIEITDFNKIKSIEITPLPSAGGS [r8_111_JUSTAS]
0.528

----------
assay: folding stability dG unfold from trypsin proteolysis; higher = more stable
Measured folding stability dG unfold accompanies every entry in the list below.
measured parameter: folding stability dG unfold (kcal/mol)

SVYNPNNPNIPTKLTVTIPVPEEVVAAGDTAAAEAAAEATAAALAPEGWRVTSVSFPRETGTMTVTLTRPSA [r9_75_JUSTAS]
1.32
SAGGSAGGSAGGSPNYRLEIRVDIKVSYRYDLFTGEPIEPEVEIEVEIRLIPEGAIVDESAGGSAGGSAGGS [r4_175_TrMRF]
3.87
SAGGSKMPPGYKMIPIEIPFRTPEDLEQAINFAEELAREGFTIIDIDVEIPEGDNYRVEFHIMLPYSAGGSA [r2_350_TrROS]
1.85
SAGGSAGGSYWFSITFKINFWVIDGNRIHPVPIEITILIKIPPIPPDEMKPEPTPDGEPKYDFSAGGSAGGS [r12_1031_TrROS]
2.73
SDPILEILKDAFQEFGIPVQVSIEPDPDGKRVIPIRIMSPKDMDENGMKMQEQTFPIKVNGKKWRVEISWSA [r9_489_TrROS]
1.45
SAGGRVDVRVERVGEGAVITLLADVEDPEPLVELLEASGLPVELARIEPVRDPVTGRLLVRAVFRVPSAGGS [r16_699_TrMRF]
1.12
SAGGKKKYKLIIKIKFKKGDIDKAKKEVEAIANKIKDEFEKKGVKVKVKVSYDKDNDIVYIEVEFEVPSAGG [r13_755_TrMRF]
3.36
SAGGSAGGSAGMKPGETYLVRIRVKVDGKWYEKEVKFKSLEELKKAGIENIEEIEIRKLPSAGGSAGGSAGG [r17_290_TrROS_Hall]
1.99
SAGGSAMKKVTVTVKFPDGTTYTFDMDTESEEEFEKKVREEALKRFPDIPLEDVEVTEVVVTPELLSAGGSA [r15_220_JUSTAS]
2.3
SAGEPLGPEKAKELAEELVERVAREIAERLGLAPEEVEVVSVELTPDGRLVLTLRVPEREFTFVFPVEGSAG [r5_565_TrMRF]
3.36
SMSPSETETTTYTRTIPFPKSNPEQAKAEAEKEVRAELEAKGLKIDIPITIEWENDTVTVTIPISVTPPLSA [r9_889_JUSTAS]
0.594
SAGGSAGGSASMSYITKVEYKESPEGKLITTTTTTDPTSPNDVKTTTTVTPLPPLNPSPELKSAGGSAGGSA [r18_409_JUSTAS]
-0.309
SAGGSAGGSAGMTLTLEFTDPEVAIPLAEKLAEELGLELVEIEEREEGERPVYLVTLKVPSAGGSAGGSAGG [r11_232_JUSTAS]
1.63
SAGGNNAWVQITIPITIKPVYEPEYDPDNGKPKWEPREMEIPITIWAPFDDPEDAERAADDILKSLGISAGG [r13_35_TrROS]
0.837
